TARGET_OR_SYSTEM: VIM-1 (Pseudomonas aeruginosa (strain ATCC 15692 / DSM 22644 / CIP 104116 / JCM 14847 / LMG 12228 / 1C / PRS 101 / PAO1), UniProt A0A0F7KYQ8)
RUN_DESCRIPTION: Enzyme activity: determination of IC50, fluorescence assay with CCF2-FA substrate (VIM-1)
Type: biochemical
STATED_CONDITIONS: VIM-1 enzyme, CCF2-FA fluorescence assay; read-out: VIM-1 IC50
pIC50: −log10 of the molar value.
y means recorded pIC50 is 8 or above; n means it is below 8.

molecule="Cl.Cl.NC1CNCCC1(O)c1ccc(-c2cccc(S(N)(=O)=O)c2-c2nn[nH]n2)cc1 (racemic)" answer_label=n
molecule=Nc1ccc(-c2cccc(S(N)(=O)=O)c2-c2nnn[nH]2)c2ccncc12 answer_label=y
molecule=NS(=O)(=O)c1cccc(-c2cnc3cc[nH]c3c2)c1-c1nn[nH]n1 answer_label=n
molecule=NS(=O)(=O)c1cccc(-c2csc(-c3ccncc3)n2)c1-c1nnn[nH]1 answer_label=n
molecule=CS(=O)(=O)c1nc2cc(Cl)c(-c3cccc(S(N)(=O)=O)c3-c3nn[nH]n3)cc2[nH]1 answer_label=n
molecule=NCCc1ccc(-c2cccc(S(N)(=O)=O)c2-c2nnn[nH]2)cc1 answer_label=n
molecule=NS(=O)(=O)c1c(CCC2CNC2)ccc(-c2ccc(C3CCNCC3)cc2)c1-c1nn[nH]n1 answer_label=y
molecule=NS(=O)(=O)c1c(C(F)(F)F)ccc(-c2ccc(C3CNC3)cc2)c1-c1nn[nH]n1 answer_label=y

====

TARGET_OR_SYSTEM: IMP-1 (Serratia marcescens)
Sequence (P52699 whole entry, looked up): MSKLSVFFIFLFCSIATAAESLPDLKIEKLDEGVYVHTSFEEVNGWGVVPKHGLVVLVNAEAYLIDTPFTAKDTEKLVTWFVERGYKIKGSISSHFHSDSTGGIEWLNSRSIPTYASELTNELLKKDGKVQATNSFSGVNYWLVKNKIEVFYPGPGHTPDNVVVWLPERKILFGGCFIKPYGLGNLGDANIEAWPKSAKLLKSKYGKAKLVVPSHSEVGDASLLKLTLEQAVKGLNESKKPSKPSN
RUN_DESCRIPTION: biochemical
Format: biochemical
STATED_CONDITIONS: IMP-1 enzyme, CCF2-FA substrate; read-out: IMP-1 IC50
Rule: IC50 below 50 nM gives fulfilled. Equal to or above 50 nM gives not fulfilled.

compound="NCC1CCC(N[C@H]2CC[C@H](c3ccc(C(F)(F)F)c(S(N)(=O)=O)c3-c3nnn[nH]3)CC2)CC1 (stereo partly drawn) [Example 699]" answer_label="not fulfilled"
compound="NS(=O)(=O)c1c(C(F)(F)F)ccc([C@H]2CC[C@H](NC3CC[C@@H]4CNCC[C@H]4C3)CC2)c1-c1nnn[nH]1 (stereo partly drawn)" answer_label="not fulfilled"
compound="NC1CCCC(N[C@H]2CC[C@H](c3ccc(C(F)(F)F)c(S(N)(=O)=O)c3-c3nnn[nH]3)CC2)C1 (stereo partly drawn)" answer_label="not fulfilled"
compound=Nc1nc2ccc(-c3ccc(C(F)(F)F)c(S(N)(=O)=O)c3-c3nnn[nH]3)cc2s1 answer_label=fulfilled
compound=Nc1nc2cc(F)cc(-c3ccc(C(F)(F)F)c(S(N)(=O)=O)c3-c3nnn[nH]3)c2[nH]1 answer_label=fulfilled
compound=NS(=O)(=O)c1c(C(F)(F)F)ccc(C2CCCCC2)c1-c1nnn[nH]1 answer_label=fulfilled
compound=N#Cc1cc(-c2ccc(C(F)(F)F)c(S(N)(=O)=O)c2-c2nnn[nH]2)c2[nH]c(N)nc2c1 answer_label=fulfilled
compound="NS(=O)(=O)c1cccc(-c2ccc(NC3CCNC3)nc2)c1-c1nnn[nH]1 (stereo not drawn)" answer_label="not fulfilled"
compound=NS(=O)(=O)c1cccc(-c2cnc3cnccn23)c1-c1nnn[nH]1 answer_label="not fulfilled"
compound=Nc1nc2c(-c3ccc(CCCO)c(S(N)(=O)=O)c3-c3nn[nH]n3)cccc2s1 answer_label=fulfilled
compound=CNCCN(C)c1ccc(-c2cccc(S(N)(=O)=O)c2-c2nnn[nH]2)cn1 answer_label="not fulfilled"
compound="CN(C)C1CCN(c2ccc(-c3cccc(S(N)(=O)=O)c3-c3nnn[nH]3)cn2)C1 (stereo not drawn)" answer_label="not fulfilled"
compound=NS(=O)(=O)c1c(C(F)(F)F)ccc(-c2ccc(C3CCN(C[C@@H]4CNCCO4)CC3)cc2)c1-c1nnn[nH]1 answer_label=fulfilled
compound=NC[C@H]1CC[C@H](c2ccc(CCC3CCNCC3)c(S(N)(=O)=O)c2-c2nnn[nH]2)CC1 answer_label="not fulfilled"
compound="N=C(N)NC1CCC(CCc2ccc(C(F)(F)F)c(S(N)(=O)=O)c2-c2nn[nH]n2)CC1 (stereo not drawn)" answer_label=fulfilled
compound=N#Cc1cccc2ncc(-c3cccc(S(N)(=O)=O)c3-c3nnn[nH]3)n12 answer_label=fulfilled
compound=NS(=O)(=O)c1c(C(F)(F)F)ccc(-c2ccc(C3CCN(CC4CNC4)CC3)cc2)c1-c1nnn[nH]1 answer_label=fulfilled
compound=NS(=O)(=O)c1cccc(-c2cnc3ccc(Cl)nn23)c1-c1nnn[nH]1 answer_label="not fulfilled"
compound=CS(=O)(=O)C1CN(c2ccc(-c3cccc(S(N)(=O)=O)c3-c3nnn[nH]3)cn2)C1 answer_label=fulfilled
compound=Nc1cc(-c2cccc(S(N)(=O)=O)c2-c2nn[nH]n2)cnc1N answer_label="not fulfilled"
compound=CN(CCCCN)c1nc2c(-c3cccc(S(N)(=O)=O)c3-c3nnn[nH]3)cccc2s1 answer_label="not fulfilled"
compound=Nc1cc(-c2ccc(C(F)(F)F)c(S(N)(=O)=O)c2-c2nnn[nH]2)cc(N)n1 answer_label=fulfilled
compound=Nc1ccc(-c2ccc(C[C@H]3CC[C@@H](N)CC3)c(S(N)(=O)=O)c2-c2nnn[nH]2)cn1 answer_label=fulfilled
compound="NS(=O)(=O)c1c(CC[C@H]2CC[C@H](N)CC2)ccc(-c2ccc(C3CCNC3)cc2)c1-c1nnn[nH]1 (stereo partly drawn)" answer_label=fulfilled
compound=C[N+](C)(C)CCN1CCC(c2ccc(-c3ccc(C(F)(F)F)c(S(N)(=O)=O)c3-c3nnn[nH]3)cc2)CC1 answer_label=fulfilled
compound="NCC1COc2ccc(-c3ccc(C(F)(F)F)c(S(N)(=O)=O)c3-c3nnn[nH]3)cc21 (stereo not drawn)" answer_label=fulfilled
compound="NS(=O)(=O)c1c(C(F)(F)F)ccc([C@H]2CC[C@H](NCC3CCCN3)CC2)c1-c1nnn[nH]1 (stereo partly drawn)" answer_label=fulfilled
compound=NS(=O)(=O)c1c(C(F)(F)F)ccc([C@H]2CC[C@H](NCC3CCNCC3)CC2)c1-c1nnn[nH]1 answer_label="not fulfilled"
compound=NC[C@H]1CC[C@H](Cc2ccc(-c3ccc(C4CNC4)cc3)c(-c3nnn[nH]3)c2S(N)(=O)=O)CC1 answer_label=fulfilled
compound=NS(=O)(=O)c1c(CC2CCNCC2)ccc(-c2ccc(C3CNC3)cc2)c1-c1nnn[nH]1 answer_label=fulfilled

====

TARGET_OR_SYSTEM: IMP-1 (Serratia marcescens)
RUN_DESCRIPTION: biochemical
Format: biochemical
STATED_CONDITIONS: IMP-1 enzyme, CCF2-FA fluorescence assay; read-out: IMP-1 IC50
pIC50: −log10 of the molar value.
Mark NOT MET for pIC50 values under 7, and MET for everything at or above.

compound=NS(=O)(=O)c1c(Cl)ccc(-c2ccc(C3CCNCC3)cc2)c1-c1nn[nH]n1 answer_label=MET
compound=NS(=O)(=O)c1c(C2CC2)ccc(-c2ccnc3ccccc23)c1-c1nn[nH]n1 answer_label=MET
compound=NS(=O)(=O)c1cccc(-c2ccc(N3CCCCC3)nc2)c1-c1nn[nH]n1 answer_label="NOT MET"
compound=NS(=O)(=O)c1cccc(-c2ccc(CNCCN3CCCC3)cc2)c1-c1nn[nH]n1 answer_label="NOT MET"
compound=NS(=O)(=O)c1c(-c2ccc(C3CCNCC3)cc2)ccc(-c2ccc(C3CCNCC3)cc2)c1-c1nn[nH]n1 answer_label=MET
compound=NS(=O)(=O)c1nncc(-c2ccc(Br)cc2)c1-c1nn[nH]n1 answer_label="NOT MET"
compound="NC1CCC(Cc2ccc(-c3ccnc4ccccc34)c(-c3nn[nH]n3)c2S(N)(=O)=O)CC1 (stereo not drawn)" answer_label=MET
compound=Cc1ccc(-c2ccc(Cl)c(S(N)(=O)=O)c2-c2nn[nH]n2)cc1 answer_label=MET
compound=Cc1ccc(-c2cc(-c3ccc(O)nc3)cc(S(N)(=O)=O)c2-c2nn[nH]n2)cc1 answer_label="NOT MET"
compound=NS(=O)(=O)c1c(C(F)(F)F)ccc(-c2ccc(C3CCNCC3)cc2)c1-c1nn[nH]n1 answer_label=MET
compound=NS(=O)(=O)c1c(CC2(F)CCNCC2)ccc(-c2ccc(C3CCNCC3)cc2)c1-c1nn[nH]n1 answer_label=MET
compound=NCc1nccc2cc(-c3cccc(S(N)(=O)=O)c3-c3nn[nH]n3)ccc12 answer_label=MET
compound=NS(=O)(=O)c1c(C(F)(F)F)ccc(CC[C@H]2CC[C@H](N)CC2)c1-c1nn[nH]n1 answer_label=MET
compound=Nc1nc2ccc(-c3cccc(S(N)(=O)=O)c3-c3nn[nH]n3)cc2[nH]1 answer_label="NOT MET"
compound="CN1[C@@H]2CC[C@H]1CC(NCc1ccc(-c3cccc(S(N)(=O)=O)c3-c3nnn[nH]3)cc1)C2 (stereo partly drawn)" answer_label="NOT MET"
compound=Cc1nc(CNCc2ccc(-c3cccc(S(N)(=O)=O)c3-c3nnn[nH]3)cc2)no1 answer_label=MET
compound=Nc1ccc(-c2cccc(S(N)(=O)=O)c2-c2nnn[nH]2)c2ccncc12 answer_label=MET
compound=Nc1nc2c(-c3ccc(C(F)(F)F)c(S(N)(=O)=O)c3-c3nnn[nH]3)cccc2s1 answer_label=MET
compound=Nc1ccnc2ccc(-c3cccc(S(N)(=O)=O)c3-c3nnn[nH]3)cc12 answer_label="NOT MET"
compound=NCCc1ccc(-c2cccc(S(N)(=O)=O)c2-c2nnn[nH]2)cn1 answer_label="NOT MET"
compound=NS(=O)(=O)c1cccc(-c2ccc(CN3CCNC(=O)C3)cc2)c1-c1nnn[nH]1 answer_label=MET
compound=NS(=O)(=O)c1cccc(-c2ccc(CN3CC(F)(F)C3)cc2)c1-c1nnn[nH]1 answer_label=MET
compound=Nc1nccc2ccc(-c3cccc(S(N)(=O)=O)c3-c3nnn[nH]3)cc12 answer_label="NOT MET"
compound=N#Cc1ccc(-c2cccc(S(N)(=O)=O)c2-c2nnn[nH]2)cc1 answer_label="NOT MET"
